Data origin: patent US9980943B2

System: β-galactosidase in CMV-LacZ C2C12 myotubes
test_name: CMV-LacZ secondary screen in C2C12 myotubes (β-Gal stabilizing assay)
Type: cell-based, mouse
recorded_conditions: 0.5 uM; C2C12 CMV-LacZ myotubes; fold relative to DMSO
Measured CMV-LACZ in Myotubes, signal relative to DMSO, listed per entry.
Just the number, please, no unit attached.

Here `CCCn1c(-c2cc(OC)c(OC)c(OC)c2)nc2c1c(=O)[nH]c(=O)n2Cc1ccccc1` was tested on β-galactosidase in CMV-LacZ C2C12 myotubes, and its CMV-LACZ in Myotubes, signal relative to DMSO came to 0.8533

Measured on β-galactosidase in CMV-LacZ C2C12 myotubes, `O=c1c2cc(-c3ccccc3)sc2nc2n1N=C(c1ccccc1)CS2` has a documented CMV-LACZ in Myotubes, signal relative to DMSO of 1.0257

# COc1cc(/C=C/CN2CCN(Cc3ccc(C)o3)C(CCO)C2)ccc1O (centres unmarked) with β-galactosidase in CMV-LacZ C2C12 myotubes: CMV-LACZ in Myotubes, signal relative to DMSO is 0.8571

Query `Cc1ccc(NS(=O)(=O)c2ccc(-c3ccc(=O)[nH]n3)o2)c(C)c1` on β-galactosidase in CMV-LacZ C2C12 myotubes; CMV-LACZ in Myotubes, signal relative to DMSO returned: 1.2552

The value of CMV-LACZ in Myotubes, signal relative to DMSO recorded for `Cc1cccc(Cn2cnc3c(nnn3Cc3ccc(Cl)cc3)c2=O)c1` when tested on β-galactosidase in CMV-LacZ C2C12 myotubes reads 0.9105

Cc1ccc(N2C(=O)C3NN=C(C(=O)OCc4ccccc4)C3C2=O)cc1 (centres unmarked) tested on β-galactosidase in CMV-LacZ C2C12 myotubes gave CMV-LACZ in Myotubes, signal relative to DMSO: 1.1263

Observed CMV-LACZ in Myotubes, signal relative to DMSO, β-galactosidase in CMV-LacZ C2C12 myotubes, `CC(C)c1ccc(OC(=O)c2cccc(S(=O)(=O)N3CCN(C)CC3)c2)cc1` : 0.9358

New cases:
# value of CMV-LACZ in Myotubes, signal relative to DMSO, β-galactosidase in CMV-LacZ C2C12 myotubes, item `NS(=O)(=O)c1ccc(NC(=O)CN2CCc3ccccc32)cc1` = 0.8848

* * *

Let's look at some compounds and their measured CMV-LACZ in Myotubes, signal relative to DMSO.
Test system: β-galactosidase in CMV-LacZ C2C12 myotubes
test_name: CMV-LacZ secondary screen in C2C12 myotubes (β-Gal stabilizing assay)
Assay type: cell-based, mouse
recorded_conditions: 10 uM; C2C12 CMV-LacZ myotubes; fold relative to DMSO
Provide a numeric answer; units are not to be included.

Memo: `Cc1ccccc1NC(=O)NCCCN1CCN(C)CC1` , reported CMV-LACZ in Myotubes, signal relative to DMSO: 1.2593

Entry under test: `Cc1cccc(NCC(=O)N/N=C\c2ccccn2)c1` . Its CMV-LACZ in Myotubes, signal relative to DMSO was 1.1225

Further cases:
The measured CMV-LACZ in Myotubes, signal relative to DMSO associated with `Cn1ccc(C(=O)Nc2cccnc2Cl)n1` reads 1.2959

Record `CN1C(=O)N(CC(=O)N2CCN(S(=O)(=O)c3ccc(Cl)s3)CC2)C(=O)C12CCCCC2` . Reported CMV-LACZ in Myotubes, signal relative to DMSO: 1.0530

// CC1CCCCN1c1ncnc(N)c1[N+](=O)[O-] (centres unmarked) : CMV-LACZ in Myotubes, signal relative to DMSO value = 0.8111

* * *

Tested on: β-galactosidase in CMV-LacZ C2C12 myotubes
test_name: CMV-LacZ secondary screen in C2C12 myotubes (β-Gal stabilizing assay)
Format: cell-based, mouse
recorded_conditions: 40 uM; SU9516 analogs, C2C12 CMV-LacZ, N=2
parameter_measured: CMV-LACZ in Myotubes, value relative to DMSO
Just the number, please, no unit after it.

Solved cases (10 shown):
Param item: `O=C1Nc2ccccc2/C1=C/c1ccccc1Cl` ; param system: β-galactosidase in CMV-LacZ C2C12 myotubes; output CMV-LACZ in Myotubes, value relative to DMSO: 0.9976

Field CMV-LACZ in Myotubes, value relative to DMSO (β-galactosidase in CMV-LacZ C2C12 myotubes), entry Cc1cc(C)c(/C=C2\C(=O)Nc3ccccc32)[nH]1 [NCGC00094381-05] : 18.0610

Note to self: CMV-LACZ in Myotubes, value relative to DMSO of Cc1cc(C)c(/C=C2\C(=O)Nc3ccccc32)[nH]1 [NCGC00094381-03] with β-galactosidase in CMV-LacZ C2C12 myotubes was 18.6030

Simply: `O=C1Nc2ccccc2/C1=C/c1cccnc1` , β-galactosidase in CMV-LacZ C2C12 myotubes, CMV-LACZ in Myotubes, value relative to DMSO = 1.1071

β-galactosidase in CMV-LacZ C2C12 myotubes assay, compound `CN1CCN(c2ccccc2/C=C2/C(=O)Nc3ccccc32)CC1` , recorded CMV-LACZ in Myotubes, value relative to DMSO = 1.0263

The recorded CMV-LACZ in Myotubes, value relative to DMSO with β-galactosidase in CMV-LacZ C2C12 myotubes for `CCn1c(O)c(C(C#N)=C2N=c3ccccc3=N2)c2ccccc21` was 1.0094

Tested on β-galactosidase in CMV-LacZ C2C12 myotubes: `CCc1nc(/C=C2\C(=O)Nc3ccccc32)c[nH]1` . Observed CMV-LACZ in Myotubes, value relative to DMSO: 0.8789

Recorded CMV-LACZ in Myotubes, value relative to DMSO for `O=C1Nc2ccccc2/C1=C/c1cnc(-c2ccccc2)[nH]1` on β-galactosidase in CMV-LacZ C2C12 myotubes was 2.2953

Reported β-galactosidase in CMV-LacZ C2C12 myotubes CMV-LACZ in Myotubes, value relative to DMSO for item Cc1cc(C)c(/C=C2\C(=O)Nc3ccccc32)[nH]1 [NCGC00094381-04] was 8.1220

Form field CMV-LACZ in Myotubes, value relative to DMSO for item `COc1ccc2c(c1)C(=C(C#N)C#N)C(=O)N2CCc1ccccc1` on β-galactosidase in CMV-LacZ C2C12 myotubes: 1.9682

---
// CMV-LACZ in Myotubes, value relative to DMSO (β-galactosidase in CMV-LacZ C2C12 myotubes) for `N#C/C(=C1/C(=O)Nc2ccc(Br)cc21)c1ccccn1` = 1.2059

# value of CMV-LACZ in Myotubes, value relative to DMSO, β-galactosidase in CMV-LacZ C2C12 myotubes, item `Cc1ccc2c(c1)/C(=C/c1ccccc1F)C(=O)N2` = 0.8242

With β-galactosidase in CMV-LacZ C2C12 myotubes as the test system, `O=C1Nc2ccccc2/C1=C/c1ccc([N+](=O)[O-])cc1` showed CMV-LACZ in Myotubes, value relative to DMSO of 0.9400

Assay β-galactosidase in CMV-LacZ C2C12 myotubes, sample `O=C1C(c2c(O)[nH]c3ccccc23)=Nc2ccccc21` , CMV-LACZ in Myotubes, value relative to DMSO read: 1.1410

The compound `Cc1ccc2c(c1)/C(=C/c1ccccc1)C(=O)N2` on β-galactosidase in CMV-LacZ C2C12 myotubes: CMV-LACZ in Myotubes, value relative to DMSO was 0.7863

The compound `Cc1ncc(/C=C2\C(=O)Nc3ccccc32)[nH]1` , when measured on β-galactosidase in CMV-LacZ C2C12 myotubes, yielded CMV-LACZ in Myotubes, value relative to DMSO of 1.3600

Reading of CMV-LACZ in Myotubes, value relative to DMSO for `COc1ccc2c(c1)/C(=C\c1cccc(/C=C3/C(=O)Nc4ccc(OC)cc43)n1)C(=O)N2` with β-galactosidase in CMV-LacZ C2C12 myotubes: 0.6550

* * *

System: β-galactosidase in CMV-LacZ C2C12 myotubes
test_name: CMV-LacZ secondary screen in C2C12 myotubes (β-Gal stabilizing assay)
Format: cell-based, mouse
recorded_conditions: 10 uM; C2C12 CMV-LacZ myotubes; fold relative to DMSO
Mark each entry Yes if its CMV-LACZ in Myotubes, signal relative to DMSO sits below 1, and No for all others.

Recorded results for 8 compounds are shown here.
Identify whether the compound Cc1cccc(NC(=O)c2ccc(N3C(=O)C4CCCCC4C3=O)cc2)c1C (stereo not drawn) [MLS001147727-01] records CMV-LACZ in Myotubes, signal relative to DMSO below 1. Yes

Does this compound meet the criterion CMV-LACZ in Myotubes, signal relative to DMSO < 1? Cc1ccsc1CN(C)CC(=O)Nc1ccc([N+](=O)[O-])cc1Cl [MLS001172822-01] No

Quick check: does COc1ccc(OC)c(S(=O)(=O)Nc2c(NC3CCCCC3)c3ccccc3oc2=O)c1 [MLS001095705-01] have CMV-LACZ in Myotubes, signal relative to DMSO under 1? No

Lab note: CMV-LACZ in Myotubes, signal relative to DMSO threshold 1. Does this compound come in strictly under it? Cc1nnc(-c2ccc(N3CCOCC3)c([N+](=O)[O-])c2)o1 [MLS001359861-01] No

Strictly below 1: is that where CMV-LACZ in Myotubes, signal relative to DMSO of NS(=O)(=O)c1ccc(NC(=O)c2ccc(CNS(=O)(=O)c3cc(C(F)(F)F)ccc3Cl)cc2)cc1 [MLS000393110-01] sits? Yes

Bench note: check whether C=CCN(CC=C)C(=O)c1ccc(OC2CCN(S(=O)(=O)N(C)C)CC2)cc1 [MLS000693729-01] shows CMV-LACZ in Myotubes, signal relative to DMSO below 1 No

Please let me know if CCN(C(=O)c1ccc(S(=O)(=O)N(C)C)cc1)C(C)C(=O)Nc1ccc(C)cc1 (stereo not drawn) [MLS001170856-01] shows CMV-LACZ in Myotubes, signal relative to DMSO below 1. No

Determine whether this compound shows CMV-LACZ in Myotubes, signal relative to DMSO lower than 1 (ties excluded): Cc1ccc(NS(=O)(=O)c2cccc(C(=O)O)c2)cc1S(=O)(=O)N1CCOCC1 [MLS000393966-01] No

New cases:
Would you kindly verify if CMV-LACZ in Myotubes, signal relative to DMSO of CN(C)CCNc1ncnc2sc(-c3ccccc3)cc12 [MLS001179717-01] is strictly less than 1? Yes

Is 1 strictly greater than the compound's reported CMV-LACZ in Myotubes, signal relative to DMSO? compound: COc1ccc(N=Nc2ccc(N)nc2N)cc1 [MLS000736846-01] No

Determine whether this compound shows CMV-LACZ in Myotubes, signal relative to DMSO lower than 1 (ties excluded): COc1ccc(CNC(=O)CCN2C(=O)c3ccccc3C2=O)cc1 [MLS001200980-01] Yes
